Molecular target: T1, CD19 (UniProt P15391 20-556, limits assumed)
T1 sequence (looked up): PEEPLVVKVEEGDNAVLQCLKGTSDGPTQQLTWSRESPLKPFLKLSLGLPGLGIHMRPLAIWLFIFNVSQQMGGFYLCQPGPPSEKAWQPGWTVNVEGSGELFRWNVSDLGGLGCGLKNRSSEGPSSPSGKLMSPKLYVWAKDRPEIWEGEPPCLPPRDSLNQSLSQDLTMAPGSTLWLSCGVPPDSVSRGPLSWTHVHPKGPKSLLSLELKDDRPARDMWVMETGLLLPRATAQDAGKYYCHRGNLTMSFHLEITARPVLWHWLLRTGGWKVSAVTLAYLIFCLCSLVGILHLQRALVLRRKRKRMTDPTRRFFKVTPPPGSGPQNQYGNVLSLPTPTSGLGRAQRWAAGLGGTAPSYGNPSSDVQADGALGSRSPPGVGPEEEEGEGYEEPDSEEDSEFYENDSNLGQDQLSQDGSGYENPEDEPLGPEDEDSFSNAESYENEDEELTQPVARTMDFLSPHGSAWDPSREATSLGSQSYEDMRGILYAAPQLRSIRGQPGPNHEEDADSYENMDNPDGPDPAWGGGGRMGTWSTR
Test: cell-based or functional assay
// reported EC50 of cytotoxicity (LDH), sCAR-T cells + switch vs CD19+ RS4;11, assay DTR-5-50 (PBMC) for each item listed
Give the value, in units of pM, as a plain number.

Task item: Recorded EC50 of cytotoxicity (LDH), sCAR-T cells + switch vs CD19+ RS4;11, assay DTR-5-50 (PBMC) for hFMCL2/H3 WT (antibody, V domains shown) VH: QVQLQESGPGLVKPSETLSVTCTVSGVSLPDYGVSWIRQPPGKGLEWLGVIWGSETTYYNPSLKSRLTISKDNSKNQVSLKMSSLTAADTAVYYCARHYYYGGSYAMDYWGQGTLVTVSS VL: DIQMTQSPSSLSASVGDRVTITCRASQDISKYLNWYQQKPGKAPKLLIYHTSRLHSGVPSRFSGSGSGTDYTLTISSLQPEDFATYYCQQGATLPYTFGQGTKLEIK , please?
Reply: 61.4

Task item: Recorded EC50 of cytotoxicity (LDH), sCAR-T cells + switch vs CD19+ RS4;11, assay DTR-5-50 (PBMC) for hFMCL2b(A92N)-LCNT/hFMCH4c(Q1E) (Fab, V domains shown) VH: EVQLQESGPGLVKPSETLSVTCTVSGVSLPDYGVSWIRQPPGKGLEWLGVIWGSETTYYNSALKSRLTISKDNSKNQVSLKMSSLTAADTAVYYCAKHYYYGGSYAMDYWGQGTLVTVSS VL: DIQMTQSPSSLSASVGDRVTITCRASQDISKYLNWYQQKPGKAVKLLIYHTSRLHSGVPSRFSGSGSGTDYTLTISSLQPEDFATYFCQQGNTLPYTFGQGTKLEIK , please?
Reply: 6.55

Task item: Recorded EC50 of cytotoxicity (LDH), sCAR-T cells + switch vs CD19+ RS4;11, assay DTR-5-50 (PBMC) for hFMCL2a-LCNT/hFMCH4b (Fab, V domains shown) VH: QVQLQESGPGLVKPSETLSVTCTVSGVSLPDYGVSWIRQPPGKGLEWLGVIWGSETTYYNPSLKSRLTISKDNSKNQVSLKMSSLTAADTAVYYCAKHYYYGGSYAMDYWGQGTLVTVSS VL: DIQMTQSPSSLSASVGDRVTITCRASQDISKYLNWYQQKPGKAVKLLIYHTSRLHSGVPSRFSGSGSGTDYTLTISSLQPEDFATYYCQQGATLPYTFGQGTKLEIK , please?
Reply: 5.29
